assay comment: ATG_NRF2_ARE_CIS: Attagene CIS-FACTORIAL HepG2 Assay for human Nuclear Factor Erythroid 2 Related Factor 2 (NFR2) response to Antioxidant Response Elements (ARE) (AID 2282992)
experimental context: HepG2 Attagene ARE/NRF2 reporter, transcription factor activity; actives raise or lower the signal
The source made the active and inactive calls. How the source made its calls: active means hit-call score of the fitted dose curve at least 0.9, where 1 is the maximum; inactive means score below 0.9.
Respond only with the outcome that fits, drawn from active, inactive

What outcome does the record of this test show for C/C=C/C=C/C(=O)O ?
inactive

What outcome does the record of this test show for CC(=O)OC1CC(C)OC(C)O1 (centres undefined) ?
active

What outcome does the record of this test show for C=CCc1ccc(OC)c(OC)c1 ?
inactive

What outcome does the record of this test show for CC(=O)S[C@H](C(=O)N[C@H]1Cc2ccccc2[C@H]2CCC[C@@H](C(=O)O)N2C1=O)C(C)C ?
inactive

What outcome does the record of this test show for Nc1nc(Cl)nc2c1ncn2[C@H]1C[C@H](O)[C@@H](CO)O1 ?
inactive

What outcome does the record of this test show for CCCCCCCCCC[N+](C)(C)[O-] ?
inactive

What outcome does the record of this test show for CC(C)COC(=O)CCCCC(=O)OCC(C)C ?
inactive

What outcome does the record of this test show for CN(C)C(=O)NC1(c2ccccc2)CCN(CCC[C@]2(c3ccc(Cl)c(Cl)c3)CCCN(C(=O)c3ccccc3)C2)CC1 ?
active

What outcome does the record of this test show for CC(C)(O)c1ccc(CNC(=O)c2cccnc2Oc2ccc(F)cc2)cc1 ?
active

What outcome does the record of this test show for Cc1cn([C@H]2C=C[C@@H](CO)O2)c(=O)[nH]c1=O ?
inactive

What outcome does the record of this test show for CCCCc1nc2cccnc2n1Cc1ccc(-c2ccccc2-c2nnn[nH]2)cc1 ?
active

What outcome does the record of this test show for CSc1ccc(Oc2ccc(S(N)(=O)=O)cc2CN(C)C)cc1C ?
inactive

What outcome does the record of this test show for CC1=C(C)S(=O)(=O)CCS1(=O)=O ?
active

What outcome does the record of this test show for CCc1nc(N)nc(N)c1-c1ccc(Cl)cc1 ?
active

What outcome does the record of this test show for O=Cc1ccccc1C=O ?
inactive

What outcome does the record of this test show for O=C1O[C@H]([C@H](O)CO)C(O)=C1O ?
inactive

What outcome does the record of this test show for C/C=C/c1ccc(OC)cc1 ?
inactive

What outcome does the record of this test show for O=[Si]=O ?
inactive

What outcome does the record of this test show for CCCCC(CC)COP(=O)(OCC(CC)CCCC)OCC(CC)CCCC (centres undefined) ?
inactive

What outcome does the record of this test show for CCCCC(CC)CO (centres undefined) ?
inactive

What outcome does the record of this test show for Cn1cnc2c1c(=O)[nH]c(=O)n2C ?
inactive

What outcome does the record of this test show for NC(=Nc1ccccc1)Nc1ccccc1 ?
active

What outcome does the record of this test show for CCc1cc(C2=C(C(=O)O)N(c3ccccc3C(F)(F)F)S(=O)(=O)c3ccccc32)cc2c1OCO2 ?
active

What outcome does the record of this test show for CO[C@@H]1COCC[C@@H]1N[C@@H]1CC[C@@](C(=O)N2CCc3ncc(C(F)(F)F)cc3C2)(C(C)C)C1 ?
inactive

What outcome does the record of this test show for CC(=O)O ?
inactive

What outcome does the record of this test show for CC(=O)[C@@]1(O)CC[C@H]2[C@@H]3CCC4=CC(=O)CC[C@]4(C)[C@H]3CC[C@@]21C ?
inactive

What outcome does the record of this test show for Oc1ccccc1O ?
active

What outcome does the record of this test show for NC1CCCCC1 ?
inactive

What outcome does the record of this test show for CCCC[C@H]1CN(CC2CCOCC2)C(=O)OC12CCN(C1(C)CCN(C(=O)c3c(C)ncnc3C)CC1)CC2 ?
inactive

What outcome does the record of this test show for O=C1NC(=O)C(c2ccccc2)(c2ccccc2)N1 ?
inactive

What outcome does the record of this test show for CCC(C)N(C)C(=O)c1cc2ccccc2c(-c2ccccc2Cl)n1 (centres undefined) ?
active

What outcome does the record of this test show for Nc1nc(=S)c2[nH]cnc2[nH]1 ?
active

What outcome does the record of this test show for Cc1c(C)c2c(c(C)c1O)CCC(C)(COc1ccc(CC3SC(=O)NC3=O)cc1)O2 (centres undefined) ?
active

What outcome does the record of this test show for CN(C)CCCN1c2ccccc2Sc2ccc(Cl)cc21 ?
active

What outcome does the record of this test show for Cc1cc(Cc2ccc(N)c(C)c2)ccc1N ?
inactive

What outcome does the record of this test show for C=CCCCCCCCCCCCC ?
inactive

What outcome does the record of this test show for O=C1CCCCC1 ?
inactive

What outcome does the record of this test show for CC(C)(C)c1ccccc1 ?
inactive

What outcome does the record of this test show for CS(=O)(=O)c1ccc([C@@H](C[C@H]2CCC(=O)C2)C(=O)Nc2cnccn2)cc1Cl ?
active

What outcome does the record of this test show for CN(C)C(=O)NC1(c2ccccc2)CCN(CC[C@@]2(c3ccc(F)c(F)c3)CN(C(=O)c3ccccc3)CCO2)CC1 ?
active

What outcome does the record of this test show for Cc1ccc(C(C)(C)C)c(O)c1 ?
active

What outcome does the record of this test show for COc1ccc(OC(F)(F)F)cc1CN[C@H]1CCCN[C@H]1c1ccccc1 ?
active

What outcome does the record of this test show for CN(C)CCCN(C)CCCN(C)C ?
inactive

What outcome does the record of this test show for O=C(Oc1ccccc1)c1cccc(C(=O)Oc2ccccc2)c1 ?
inactive
